Every entry's value here was drawn from ChEMBL document CHEMBL1126657.

protocol: Percent inhibition of 2,2'-azobis(2-amidinopropane)dihydrochloride induced decay of (R)-phycoerythrin fluorescence emission
Format: functional
Parameters: concentration or dose not given beside the values
reported.conditions: dose or concentration not given here
# inhibition >= 70% gives Satisfied, anything below gives Not satisfied

{"columns": ["structure.notation", "class.name"],
 "data": [
  ["CCCCNCc1cc(OC)c(O)c(OC)c1.Cl", "Not satisfied"],
  ["CCN(CC)Cc1cc(OC)c(O)c(OC)c1.Cl", "Not satisfied"],
  ["CCCNCc1cc(OC)c(O)c(OC)c1.Cl", "Satisfied"],
  ["CCCCOc1cc(CN(C)C)cc(OCCCC)c1O.Cl", "Satisfied"],
  ["CNCc1cc(OC)c(O)c(OC)c1.Cl", "Satisfied"],
  ["CCCOc1cc(CN(C)C)cc(OCCC)c1O.Cl", "Satisfied"],
  ["CCCCCOc1cc(CN(C)C)cc(OCCCCC)c1O.Cl", "Not satisfied"],
  ["CCCCCN(CCCCC)Cc1cc(OC)c(O)c(OC)c1.Cl", "Not satisfied"],
  ["CN(C)Cc1cc(OC2CCCC2)c(O)c(OC2CCCC2)c1.Cl", "Satisfied"]
]}
